The reported numbers originate from patent US20250090540A1.

Assignment: determine reported IC50 for the given compounds.
Molecular target: H1047R PIK3CA enzyme (Homo sapiens, UniProt P42336, H1047R)
Sequence (P42336 whole entry H1047R): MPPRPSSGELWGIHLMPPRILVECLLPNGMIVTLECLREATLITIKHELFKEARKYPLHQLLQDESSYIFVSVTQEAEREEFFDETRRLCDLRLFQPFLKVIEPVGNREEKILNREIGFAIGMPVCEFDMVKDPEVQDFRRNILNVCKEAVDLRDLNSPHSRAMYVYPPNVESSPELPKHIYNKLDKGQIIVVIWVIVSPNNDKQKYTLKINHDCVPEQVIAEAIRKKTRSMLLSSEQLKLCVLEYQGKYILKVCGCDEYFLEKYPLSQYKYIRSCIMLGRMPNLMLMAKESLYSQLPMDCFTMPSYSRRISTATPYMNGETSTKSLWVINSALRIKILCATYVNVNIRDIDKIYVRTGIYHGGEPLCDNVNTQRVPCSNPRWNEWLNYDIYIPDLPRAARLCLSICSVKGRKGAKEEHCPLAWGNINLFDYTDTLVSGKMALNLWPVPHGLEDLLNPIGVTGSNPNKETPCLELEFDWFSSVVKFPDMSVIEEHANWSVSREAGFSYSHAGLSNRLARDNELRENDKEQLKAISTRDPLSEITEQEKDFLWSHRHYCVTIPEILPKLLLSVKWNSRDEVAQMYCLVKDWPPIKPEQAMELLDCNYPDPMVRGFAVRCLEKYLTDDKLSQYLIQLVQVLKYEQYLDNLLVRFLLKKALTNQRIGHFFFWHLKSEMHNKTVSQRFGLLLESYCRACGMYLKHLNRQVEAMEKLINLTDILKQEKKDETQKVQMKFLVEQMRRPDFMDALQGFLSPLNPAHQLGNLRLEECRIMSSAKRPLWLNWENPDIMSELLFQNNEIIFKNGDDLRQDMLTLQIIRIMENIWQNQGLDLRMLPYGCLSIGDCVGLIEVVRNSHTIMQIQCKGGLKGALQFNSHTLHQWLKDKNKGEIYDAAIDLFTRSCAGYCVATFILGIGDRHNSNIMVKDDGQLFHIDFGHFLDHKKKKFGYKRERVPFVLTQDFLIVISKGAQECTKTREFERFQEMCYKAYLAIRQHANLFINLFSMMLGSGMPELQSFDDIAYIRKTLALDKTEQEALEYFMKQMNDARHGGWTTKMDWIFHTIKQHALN
Sequence (P27986 whole entry partner): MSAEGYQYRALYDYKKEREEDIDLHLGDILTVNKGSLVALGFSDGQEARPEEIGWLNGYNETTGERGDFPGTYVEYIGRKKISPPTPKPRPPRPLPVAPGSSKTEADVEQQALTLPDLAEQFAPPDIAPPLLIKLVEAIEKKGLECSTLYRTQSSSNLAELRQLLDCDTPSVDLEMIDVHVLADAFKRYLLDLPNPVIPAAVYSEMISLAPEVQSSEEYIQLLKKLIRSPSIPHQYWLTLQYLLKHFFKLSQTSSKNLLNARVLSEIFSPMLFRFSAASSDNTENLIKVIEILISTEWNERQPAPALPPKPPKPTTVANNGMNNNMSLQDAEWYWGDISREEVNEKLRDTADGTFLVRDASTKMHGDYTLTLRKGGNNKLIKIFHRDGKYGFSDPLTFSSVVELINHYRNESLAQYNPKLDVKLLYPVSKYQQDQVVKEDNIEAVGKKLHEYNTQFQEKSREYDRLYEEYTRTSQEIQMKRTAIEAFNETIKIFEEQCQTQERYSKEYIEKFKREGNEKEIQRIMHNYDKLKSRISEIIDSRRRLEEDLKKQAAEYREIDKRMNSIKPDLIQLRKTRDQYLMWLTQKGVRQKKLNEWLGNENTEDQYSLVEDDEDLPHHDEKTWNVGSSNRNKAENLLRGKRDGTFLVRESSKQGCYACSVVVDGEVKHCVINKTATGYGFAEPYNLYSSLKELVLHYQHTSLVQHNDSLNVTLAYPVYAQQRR
Assay: ADP-Glo Biochemical PIK3CA Kinase Assay
Conditions: ADP-Glo biochemical PIK3CA kinase assay
Experimental: Compounds to be assayed were plated in 16 doses of 1:2 serial dilutions (20 nL volume each well) on a 1536-well plate, and the plate warmed to room temperature. PIK3CA enzyme (e.g. H1047R, E542K, E545K, or wild-type) (1 μL of 2 nM solution in Enzyme Assay Buffer (comprising 50 mM HEPES pH 7.4, 50 mM NaCl, 6 mM MgCl2, 5 mM DTT and 0.03% CHAPS)) was added and shaken for 10 seconds and preincubated for 30 minutes. […]

>  <COMPOUND>
CNC(=O)c1cnc(Nc2ccccc2C)c(NC(=O)c2cc(C)c(F)c(C)c2)c1

>  <IC50>
1000 to 10000 nM

$$$$
>  <COMPOUND>
Cc1ccccc1[C@H]1NC(=O)C[C@@H]1C(=O)Nc1cc(F)cc(C(F)(F)F)c1 (racemic)

>  <IC50>
1000 to 10000 nM

$$$$
>  <COMPOUND>
Cc1nn(C(=O)c2cc(F)cc(C(F)(F)F)c2)c(N)c1-c1ccccc1

>  <IC50>
1000 to 10000 nM

$$$$
>  <COMPOUND>
O=C(NC1CC(F)(F)C1)c1cnc(Nc2ccccc2Cl)c(NC(=O)c2csc3ccccc23)c1

>  <IC50>
1000 to 10000 nM

$$$$

Dear colleague, could you send me IC50 for each of the items below? Thanks.
1. O=C(Nc1cc(C2CC2)nn1-c1ccccc1)c1cc(F)cc(C(F)(F)F)c1
2. CNC(=O)c1cnc(Nc2ccccc2C)c(NC(=O)c2cc3cccc(F)c3s2)c1
3. CNC(=O)c1cnc(Nc2ccccc2C)c(NC(=O)c2cc(C)cc(C#N)c2)c1
4. Cc1ccccc1Nc1ncc(C(=O)N[C@@H]2CC(=O)N(C)C2)cc1NC(=O)c1csc2ccccc12 (single isomer, unassigned)
5. CNC(=O)c1cnc(Nc2ccccc2C)c(NC(=O)c2ccc3ncc(Br)n3c2)c1
6. CNC(=O)c1cnc(Nc2ccccc2C)c(NC(=O)c2ccc3c(c2)CCN3C)c1

Response line:
1. 10000 to 100000 nM
2. 10000 to 100000 nM
3. 1000 to 10000 nM
4. ≤ 100 nM
5. 500 to 1000 nM
6. 10000 to 100000 nM

Report IC50 for each item below.
1. COc1cnccc1CCNC(=O)c1cnc(Nc2ccccc2C)c(NC(=O)c2csc3ccccc23)c1
2. CNC(=O)c1cnc(Nc2ccccc2C)c(NC(=O)Cc2cnc3ccccn23)c1
3. CNC(=O)c1cnc(Nc2ccccc2C)c(NC(=O)c2cnc(O)cc2C(F)(F)F)c1
4. CNC(=O)c1cnc(Nc2ccccc2C)c(NC(=O)c2cnn3cccc(OC)c23)c1

Response line:
100 to 500 nM
100 to 500 nM
10000 to 100000 nM
10000 to 100000 nM

# batch size: 4; output IC50 per entry
1. CCOC(=O)[C@@H]1CC[C@@H](NC(=O)c2cnc(Nc3ccccc3C)c(NC(=O)c3csc4ccccc34)c2)C1 (racemic)
2. Cc1ccccc1Nc1ncc(C(=O)NCc2ccncn2)cc1NC(=O)c1csc2ccccc12
3. Cc1ccccc1Nc1ncc(C(=O)N[C@H]2CCC(F)(F)C[C@@H]2O)cc1NC(=O)c1csc2ccccc12
4. COc1cncc(CNC(=O)c2cnc(Nc3ccccc3C)c(NC(=O)c3cc(F)cc(C(F)(F)F)c3)c2)c1

Response line:
["1000 to 10000 nM", "100 to 500 nM", "100 to 500 nM", "1000 to 10000 nM"]
